ASSAY REMARKS: relative permittivity at zero frequency (dimensionless); xn = mol fraction of the nth substance listed
RUN CONDITIONS: 328.15 K; 101 kPa; Liquid; dielectric analyzer; x1 = 0.4
Decide using relative permittivity at zero frequency: a value greater than or equal to 30 is TRUE, a smaller one is FALSE.

Kindly determine if relative permittivity at zero frequency recorded for CC(O)CNCC(C)O (stereo not given) [N-(2-hydroxypropyl)-2-hydroxy-1-propanamine] + O is above or exactly 30.
FALSE

Kindly determine if relative permittivity at zero frequency recorded for OCCN(CCO)CCO [triethanolamine] + O is above or exactly 30.
TRUE

Kindly determine if relative permittivity at zero frequency recorded for OCCNCCO [diethanolamine] + O is above or exactly 30.
TRUE

* * *

Give measured relative permittivity at zero frequency for each item. Keep answers brief.
ASSAY REMARKS: relative permittivity at zero frequency (dimensionless); xn = mol fraction of the nth substance listed
RUN CONDITIONS: 323.15 K; 101 kPa; Liquid; dielectric analyzer; x1 = 0.8
Give a plain numeric answer without units written out.

Find the recorded relative permittivity at zero frequency belonging to OCCNCCO [diethanolamine] + O and report it.
24.81

Find the recorded relative permittivity at zero frequency belonging to CC(C)(N)CO [2-amino-2-methylpropan-1-ol] + O and report it.
21.42

Find the recorded relative permittivity at zero frequency belonging to CC(O)CNCC(C)O (stereo not given) [N-(2-hydroxypropyl)-2-hydroxy-1-propanamine] + O and report it.
15.83

Find the recorded relative permittivity at zero frequency belonging to CN(CCO)CCO [N-methyldiethanolamine] + O and report it.
21.15

Find the recorded relative permittivity at zero frequency belonging to OCCN(CCO)CCO [triethanolamine] + O and report it.
26.69

* * *

ASSAY REMARKS: relative permittivity at zero frequency (dimensionless); xn = mol fraction of the nth substance listed
RUN CONDITIONS: 328.15 K; 101 kPa; Liquid; dielectric analyzer; x1 = 0.8
PARAMETER MEASURED: relative permittivity at zero frequency
Give a plain numeric answer without units written out.

Find the recorded relative permittivity at zero frequency belonging to CN(CCO)CCO [N-methyldiethanolamine] + O and report it.
20.56

Find the recorded relative permittivity at zero frequency belonging to OCCN(CCO)CCO [triethanolamine] + O and report it.
26.04

Find the recorded relative permittivity at zero frequency belonging to CC(C)(N)CO [2-amino-2-methylpropan-1-ol] + O and report it.
21.03

Find the recorded relative permittivity at zero frequency belonging to OCCNCCO [diethanolamine] + O and report it.
24.13

Find the recorded relative permittivity at zero frequency belonging to CC(O)CNCC(C)O (stereo not given) [N-(2-hydroxypropyl)-2-hydroxy-1-propanamine] + O and report it.
15.66

* * *

ASSAY REMARKS: relative permittivity at zero frequency (dimensionless)
RUN CONDITIONS: 328.15 K; 101.33 kPa; Liquid; dielectric analyzer
PARAMETER MEASURED: relative permittivity at zero frequency
Give a plain numeric answer without units written out.

Find the recorded relative permittivity at zero frequency belonging to CC(O)CNCC(C)O (stereo unspecified) [N-(2-hydroxypropyl)-2-hydroxy-1-propanamine] and report it.
13.26

Find the recorded relative permittivity at zero frequency belonging to CC(O)CO (stereo unspecified) [1,2-propanediol] and report it.
24.57

Find the recorded relative permittivity at zero frequency belonging to CC(C)(N)CO [2-amino-2-methylpropan-1-ol] and report it.
18.37

Find the recorded relative permittivity at zero frequency belonging to OCCNCCO [diethanolamine] and report it.
22.13

Find the recorded relative permittivity at zero frequency belonging to OCCN(CCO)CCO [triethanolamine] and report it.
24.8

Find the recorded relative permittivity at zero frequency belonging to CN(CCO)CCO [N-methyldiethanolamine] and report it.
19.28

* * *

ASSAY REMARKS: relative permittivity at zero frequency (dimensionless)
RUN CONDITIONS: 308.15 K; 101.33 kPa; Liquid; dielectric analyzer
Give measured relative permittivity at zero frequency for each item. Keep answers brief.
Give a plain numeric answer without units written out.

Find the recorded relative permittivity at zero frequency belonging to CN(CCO)CCO [N-methyldiethanolamine] and report it.
21.33

Find the recorded relative permittivity at zero frequency belonging to CC(C)(N)CO [2-amino-2-methylpropan-1-ol] and report it.
20.11

Find the recorded relative permittivity at zero frequency belonging to CC(O)CNCC(C)O (stereo unspecified) [N-(2-hydroxypropyl)-2-hydroxy-1-propanamine] and report it.
13.75

Find the recorded relative permittivity at zero frequency belonging to CC(O)CO (stereo unspecified) [1,2-propanediol] and report it.
27.13

Find the recorded relative permittivity at zero frequency belonging to OCCNCCO [diethanolamine] and report it.
24.3

Find the recorded relative permittivity at zero frequency belonging to OCCN(CCO)CCO [triethanolamine] and report it.
27.41

* * *

ASSAY REMARKS: relative permittivity at zero frequency (dimensionless); xn = mol fraction of the nth substance listed
RUN CONDITIONS: 308.15 K; 101 kPa; Liquid; dielectric analyzer; x1 = 0.6
Give measured relative permittivity at zero frequency for each item. Keep answers brief.
Give a plain numeric answer without units written out.

Find the recorded relative permittivity at zero frequency belonging to CC(C)(N)CO [2-amino-2-methylpropan-1-ol] + O and report it.
26.17

Find the recorded relative permittivity at zero frequency belonging to OCCN(CCO)CCO [triethanolamine] + O and report it.
30.66

Find the recorded relative permittivity at zero frequency belonging to CN(CCO)CCO [N-methyldiethanolamine] + O and report it.
26.03

Find the recorded relative permittivity at zero frequency belonging to CC(O)CNCC(C)O (stereo not given) [N-(2-hydroxypropyl)-2-hydroxy-1-propanamine] + O and report it.
18.15

Find the recorded relative permittivity at zero frequency belonging to OCCNCCO [diethanolamine] + O and report it.
29.75

* * *

ASSAY REMARKS: relative permittivity at zero frequency (dimensionless)
RUN CONDITIONS: 323.15 K; 101.33 kPa; Liquid; dielectric analyzer
Give measured relative permittivity at zero frequency for each item. Keep answers brief.
Give a plain numeric answer without units written out.

Find the recorded relative permittivity at zero frequency belonging to CC(C)(N)CO and report it.
18.88

Find the recorded relative permittivity at zero frequency belonging to CN(CCO)CCO and report it.
19.79

Find the recorded relative permittivity at zero frequency belonging to CC(O)CO (stereo unspecified) and report it.
25.08

Find the recorded relative permittivity at zero frequency belonging to CC(O)CNCC(C)O (stereo unspecified) [N-(2-hydroxypropyl)-2-hydroxy-1-propanamine] and report it.
13.36

Find the recorded relative permittivity at zero frequency belonging to OCCN(CCO)CCO and report it.
25.41

Find the recorded relative permittivity at zero frequency belonging to OCCNCCO and report it.
22.63

* * *

ASSAY REMARKS: relative permittivity at zero frequency (dimensionless); xn = mol fraction of the nth substance listed
RUN CONDITIONS: 313.15 K; 101 kPa; Liquid; dielectric analyzer; x1 = 0.6
PARAMETER MEASURED: relative permittivity at zero frequency
Give a plain numeric answer without units written out.

Find the recorded relative permittivity at zero frequency belonging to OCCN(CCO)CCO [triethanolamine] + O and report it.
29.85

Find the recorded relative permittivity at zero frequency belonging to CN(CCO)CCO [N-methyldiethanolamine] + O and report it.
25.4

Find the recorded relative permittivity at zero frequency belonging to CC(C)(N)CO [2-amino-2-methylpropan-1-ol] + O and report it.
25.65

Find the recorded relative permittivity at zero frequency belonging to CC(O)CNCC(C)O (stereo not given) [N-(2-hydroxypropyl)-2-hydroxy-1-propanamine] + O and report it.
17.84

Find the recorded relative permittivity at zero frequency belonging to OCCNCCO [diethanolamine] + O and report it.
28.91

* * *

ASSAY REMARKS: relative permittivity at zero frequency (dimensionless); xn = mol fraction of the nth substance listed
RUN CONDITIONS: 328.15 K; 101 kPa; Liquid; dielectric analyzer; x1 = 0.6
Rule for this label: true (1) means relative permittivity at zero frequency is less than 20; false (0) means relative permittivity at zero frequency is at least 20.

hey, is relative permittivity at zero frequency for OCCN(CCO)CCO [triethanolamine] + O lower than 20 or not?
false (0)

hey, is relative permittivity at zero frequency for OCCNCCO [diethanolamine] + O lower than 20 or not?
false (0)

hey, is relative permittivity at zero frequency for CN(CCO)CCO [N-methyldiethanolamine] + O lower than 20 or not?
false (0)

hey, is relative permittivity at zero frequency for CC(C)(N)CO [2-amino-2-methylpropan-1-ol] + O lower than 20 or not?
false (0)

hey, is relative permittivity at zero frequency for CC(O)CNCC(C)O (stereo not given) [N-(2-hydroxypropyl)-2-hydroxy-1-propanamine] + O lower than 20 or not?
true (1)

* * *

ASSAY REMARKS: relative permittivity at zero frequency (dimensionless); xn = mol fraction of the nth substance listed
RUN CONDITIONS: 313.15 K; 101 kPa; Liquid; dielectric analyzer; x1 = 0.4
PARAMETER MEASURED: relative permittivity at zero frequency
Give a plain numeric answer without units written out.

Find the recorded relative permittivity at zero frequency belonging to CC(O)CNCC(C)O (stereo not given) [N-(2-hydroxypropyl)-2-hydroxy-1-propanamine] + O and report it.
23.48

Find the recorded relative permittivity at zero frequency belonging to OCCNCCO [diethanolamine] + O and report it.
36.95

Find the recorded relative permittivity at zero frequency belonging to OCCN(CCO)CCO [triethanolamine] + O and report it.
34.53

Find the recorded relative permittivity at zero frequency belonging to CC(C)(N)CO [2-amino-2-methylpropan-1-ol] + O and report it.
32.33

Find the recorded relative permittivity at zero frequency belonging to CN(CCO)CCO [N-methyldiethanolamine] + O and report it.
32.16
